Test system: IGROV1 ovarian
assay_method_text: NCI tumour cell line growth inhibition, 48 h

# compound, GI50
records = [
    ("COc1ccc(Cn2cnc3cc(C(=O)Nc4cccc5ccccc45)ccc32)c(OC)c1", "65.3 nM"),
    ("COc1cc(-n2cc(-c3ccc(F)cc3)[nH]c2=S)cc(OC)c1OC", "41600 nM"),
    ("O=C1c2cccc3cccc(c23)C(=O)N1CCCCN1CCN(CCCCOc2ccc(-c3nc4ccc(N5CCOCC5)cc4[nH]3)cc2)CC1", "61900 nM"),
    ("O=C(Nc1cccnc1)c1cccc([N+](=O)[O-])c1", "> 100000 nM"),
    ("COc1cc(/C=C/c2sc3ccccc3[n+]2C)ccc1N(C)C", "9140 nM"),
    ("CCOCC(=O)N[C@H]1CCc2cc(OC(=O)COCC)c(OC)c(OC)c2-c2ccc(SC)c(=O)cc21", "38.2 nM"),
    ("COc1ccc(N(C)c2nc(Cl)nc3ccn(C)c23)cc1", "< 10 nM"),
    ("CCCCCCCCCCCCCCCCOC(=O)c1c(C)[nH]c(/C=C2\\N=C(c3ccc[nH]3)C=C2OC)c1C", "1060 nM"),
    ("COc1cc(C(=O)N2CCN(c3ccccc3OC)CC2)c(N)cc1OCc1ccccc1", "28500 nM"),
    ("O=C(Nc1ccc(Cl)cc1)c1ccc([N+](=O)[O-])o1", "3250 nM"),
    ("COc1ccc(Cn2cc3c(c2-c2ccc(O)cc2)CCc2cnoc2-3)cc1", "578 nM"),
    ("CCCCCCCCCCCCCC(=O)OC(/C=C/C(C)C)C(O)C(O)C(OC)C(=O)NC1CCCCNC1=O (stereo not given)", "650 nM"),
    ("O=c1[nH]ccc2nc(-c3ccc(CN4CCC(c5nc(-c6ccccn6)n[nH]5)CC4)cc3)c(-c3ccccc3)cc12", "65.2 nM"),
    ("Oc1ccccc1Nc1nc2ccccc2c2occc12", "61.4 nM"),
    ("CC(C)(C)c1cn2cccc(C(=O)N3CCN(CC(=O)Nc4ccc(Cl)cc4C(=O)c4ccccc4Cl)CC3)c2n1", "16400 nM"),
    ("COc1cc(C2CC(c3ccc(Nc4ccnc5cc(Cl)ccc45)cc3)=NN2C=O)cc(OC)c1OC (stereo not given)", "22300 nM"),
    ("O=C(Nc1cccc([N+](=O)[O-])c1)c1ccc2ccccc2c1O", "13800 nM"),
    ("O=c1oc2ccc(F)cc2c(=O)n1-c1ccc(Cl)cc1F", "532 nM"),
    ("COc1cc(Nc2ncc3c(C)nc(-c4cccc(Oc5ccccc5)c4)n3n2)cc(OC)c1OC", "2320 nM"),
    ("Cc1ccc(NSc2ccccc2[N+](=O)[O-])cc1", "1250 nM"),
]
